Where do these numbers come from? They come from ChEMBL document CHEMBL5236568.

biological target: Ectonucleotide pyrophosphatase/phosphodiesterase family member 1 (Homo sapiens); assay: Inhibition of ENPP1 (unknown origin) at 10 uM relative to control
Attribute Measured: inhibition (%)
Please reply with the bare figure in % and do not write the unit itself.

NS(=O)(=O)NCc1ccc(-c2ccnc3c2CN(C2CC2)C(=O)N3)cc1 has a reported inhibition of 35

The reported value for CN1Cc2c(ncnc2-c2cccc(CNS(N)(=O)=O)c2)NC1=O in terms of inhibition is 99

Entry CN1Cc2c(ncnc2N2CCC(CCNS(N)(=O)=O)CC2)NC1=O ; inhibition = 96

The molecule CN1Cc2c(-c3ccc(CNS(N)(=O)=O)c(F)c3)ccnc2NC1=O showed inhibition equal to 99

Form: molecule = CN1Cc2c(ncnc2N2CCC(C)(NS(N)(=O)=O)CC2)NC1=O ; inhibition = 98

So, CN1Cc2c(ncnc2-c2ccc(CNS(N)(=O)=O)cc2)NC1=O ? Its inhibition was 97

Quick note, inhibition for CN1Cc2c(ncnc2N2CCC(NS(N)(=O)=O)CC2)NC1=O landed at 93

For record CN1Cc2c(-c3cccc(NS(N)(=O)=O)c3)ccnc2NC1=O the listed inhibition is 95

inhibition for CN1Cc2c(ncnc2-c2ccc(CNS(N)(=O)=O)c(F)c2)NC1=O is 96

The value of inhibition measured for the molecule CN1Cc2c(ncnc2-c2cccc(NS(N)(=O)=O)c2)NC1=O turned out to be 100
